target: SFRP-1 (Homo sapiens, UniProt Q8N474); test: Cell-based assay for in vitro measurement of SFRP-1/SARP2 antagonist activity (U2OS cells co-transfected with 16x TCF-tk-Luciferase reporter, Wnt and hSFRP-1); conditions: U2OS, read-out: Fold Induction with SFRP-1, U2OS cells, single dose 10 μM, luciferase reporter, fold induction over SFRP-1 control;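 further: U2OS cells co-transfected with a TCF-tk luciferase reporter, a Wnt vector, hSFRP-1 or empty vector and CMV-βgal, luciferase luminescence read in cell lysates alongside βgal activity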
Sequence (Q8N474 32-314): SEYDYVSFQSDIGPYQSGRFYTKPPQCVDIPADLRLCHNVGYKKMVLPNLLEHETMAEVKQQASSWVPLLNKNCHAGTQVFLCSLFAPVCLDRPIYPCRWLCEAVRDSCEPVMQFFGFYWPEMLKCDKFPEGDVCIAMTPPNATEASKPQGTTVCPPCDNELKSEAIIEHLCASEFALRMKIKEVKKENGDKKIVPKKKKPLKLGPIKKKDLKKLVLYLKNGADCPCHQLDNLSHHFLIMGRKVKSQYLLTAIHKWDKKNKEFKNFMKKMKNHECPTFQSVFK
Measured fold induction at 10 µM accompanies every entry in the list below.
In your answer, state the number alone without any accompanying words.

Check out these entries, answers already filled in.
{"COMPOUND": "O=S(=O)(NC(CO)CO)c1cc(S(=O)(=O)c2ccccc2)ccc1Cl", "fold induction at 10 µM": 1.7}
{"COMPOUND": "O=S(=O)(NCC1(O)CCCCC1)c1cc(S(=O)(=O)c2ccccc2)ccc1C(F)(F)F", "fold induction at 10 µM": 2.4}
{"COMPOUND": "O=S(=O)(NC1CCOCC1)c1cc(S(=O)(=O)c2cccc(Cl)c2)ccc1C(F)(F)F", "fold induction at 10 µM": 2.5}
{"COMPOUND": "O=C(O)CCC(=O)N1CCCC1CCNS(=O)(=O)c1cc(S(=O)(=O)c2ccccc2)ccc1C(F)(F)F (stereo not shown)", "fold induction at 10 µM": 1.6}
{"COMPOUND": "O=S(=O)(NC1CCNC1)c1cc(S(=O)(=O)c2ccccc2)ccc1C(F)(F)F (stereo not shown)", "fold induction at 10 µM": 2.9}
{"COMPOUND": "CN(CCCNS(=O)(=O)c1cc(S(=O)(=O)c2ccccc2)ccc1C(F)(F)F)C(=O)NC1CCN(C(=O)OC(C)(C)C)CC1", "fold induction at 10 µM": 2.4}

Query string: Give the reported fold induction at 10 µM for this compound. `COC(=O)[C@H]1CC[C@H](CNS(=O)(=O)c2cc(S(=O)(=O)c3ccccc3)ccc2C(F)(F)F)CC1`
Result string: 3.2

Query string: Give the reported fold induction at 10 µM for this compound. `CCc1ccc(S(=O)(=O)c2ccccc2)cc1S(=O)(=O)NC1CCNCC1`
Result string: 2.5

Query string: Give the reported fold induction at 10 µM for this compound. CC(C)c1ccc(S(=O)(=O)c2ccc(F)cc2)cc1S(=O)(=O)NCC(O)c1cccnc1 (stereo not shown)
Result string: 3.3

Query string: Give the reported fold induction at 10 µM for this compound. `O=S(=O)(NCCC1CCNCC1)c1cc(S(=O)(=O)c2ccccc2)ccc1C(F)(F)F`
Result string: 4.1

Query string: Give the reported fold induction at 10 µM for this compound. `CN(CCNS(=O)(=O)c1cc(S(=O)(=O)c2ccccc2)ccc1C(F)(F)F)C(=O)c1ccncc1`
Result string: 3.5

---

PROPERTY_LABEL: melting point

Check out these entries, answers already filled in.
{"SMILES_INPUT": "CC(C)c1ccc(S(=O)(=O)c2ccccc2)cc1S(=O)(=O)NC1CCN(C(=O)c2cccc(C#N)c2)CC1", "melting point": "120 to 122 °C"}
{"SMILES_INPUT": "CC(C)c1ccc(S(=O)(=O)c2ccccc2)cc1S(=O)(=O)NC1CCN(C(=O)c2ccccc2F)CC1", "melting point": "210 to 212 °C"}
{"SMILES_INPUT": "CC(C)c1cc(C(C)C)c(S(=O)(=O)c2ccccc2)cc1S(=O)(=O)NC1CCCC1", "melting point": "179 to 181 °C"}

// next item, melting point requested
Query string: Give the reported melting point for this compound. `Cc1ccc(S(=O)(=O)c2cc3c(c(S(=O)(=O)NCCc4ccccc4F)c2)CCCC3)cc1`
Result string: 55 to 60 °C
